TGT: Pim-3 (Homo sapiens, UniProt Q86V86)
Construct: His6-labelled recombinant full-length human Pim-1, Pim-2 or Pim-3 protein; His6; made in house
ASSAY NOTES: TR-FRET assay, Pim-3 kinase (phosphorylation of Bad Ser112)
Type: biochemical
TEST SETTINGS: TR-FRET; ATP 40 μM; read-out: IC50 Pim3
pIC50: −log10 of the molar value.
MEASUREMENT LABEL: pIC50

Examples with their reported pIC50 follow.
{"columns": ["COMPOUND", "pIC50"],
 "data": [
  ["CC(COc1ccc(-c2c(F)cnc3[nH]c4cnc(-c5cccnc5)cc4c23)cc1)CN(C)C (stereo not drawn)", "7.00 to 9.00"],
  ["COc1cnc2[nH]c3cnc(-c4cnn(C)c4)cc3c2c1", "7.00 to 9.00"],
  ["COc1ccncc1-c1cc2c(cn1)[nH]c1ncc(F)cc12", "5.30 to 6.00"],
  ["Fc1cnc2[nH]c3cnc(-c4cccnc4)cc3c2c1-c1ccc2cc[nH]c2c1", "6.00 to 7.00"],
  ["CCCNc1cnc2[nH]c3cnc(-c4cccnc4)cc3c2c1", "6.00 to 7.00"],
  ["CC(C)(C)OC(=O)N1CCN(c2cc(-c3cnc4[nH]c5cnc(-c6cccnc6)cc5c4c3)ccn2)CC1", "6.00 to 7.00"]
]}

Ask | # query: pIC50 of entry "CC(C)COC(=O)c1cnc2[nH]c3cnc(-c4cccnc4)cc3c2c1"
Reply | 6.00 to 7.00

Ask | # query: pIC50 of entry OCC(O)CCc1c(F)cnc2[nH]c3cnc(-c4cccnc4)cc3c12 (stereo not drawn)
Reply | 6.00 to 7.00

Ask | # query: pIC50 of entry "Cc1cc(N2CCNCC2)ncc1-c1cnc2[nH]c3cnc(-c4cccnc4)cc3c2c1"
Reply | 7.00 to 9.00

Ask | # query: pIC50 of entry "Cc1c(F)cnc2[nH]c3cnc(-c4cccnc4)cc3c12"
Reply | 6.00 to 7.00

Ask | # query: pIC50 of entry "CCN(CC)CCn1nc(C)c(-c2cnc3[nH]c4cnc(-c5cccnc5)cc4c3c2)c1C"
Reply | 7.00 to 9.00

Ask | # query: pIC50 of entry "Fc1cnc2[nH]c3cnc(-c4cccnc4)cc3c2c1N1CCOCC1"
Reply | 6.00 to 7.00

Ask | # query: pIC50 of entry "Fc1ccc(-c2cc3c(cn2)[nH]c2ncccc23)cn1"
Reply | < 5.30

Ask | # query: pIC50 of entry "COCCOc1cnc2[nH]c3cnc(-c4cccnc4)cc3c2c1"
Reply | 7.00 to 9.00

Ask | # query: pIC50 of entry "Fc1cnc2[nH]c3cnc(-c4cccnc4)cc3c2c1N1CCN(CCCN2CCOCC2)CC1"
Reply | 7.00 to 9.00

Ask | # query: pIC50 of entry "Fc1cnc2[nH]c3cnc(-c4cccnc4)cc3c2c1-c1ccc(OCCN2CCOCC2)cc1"
Reply | 6.00 to 7.00

Ask | # query: pIC50 of entry "c1cncc(-c2cc3c(cn2)[nH]c2ncc(N4CCOCC4)cc23)c1"
Reply | 7.00 to 9.00

Ask | # query: pIC50 of entry "COc1ccccc1-c1c(F)cnc2[nH]c3cnc(-c4cccnc4)cc3c12"
Reply | 6.00 to 7.00
